Tested on: P12-Ichikawa
method.notes: cell viability relative to DMSO control; higher = less cytotoxic
recorded.conditions: RPMI 5 mM glucose + 10% FBS; 48 h; 0.00234 µM
property.label: cell viability (%)
Unit % implied. Number only.

Past entries and their recorded results:
CC12CC3CC(C)(C1)CC(N)(C3)C2
118
Cc1csc(-c2nnc(Nc3ccc(Oc4ncccc4-c4ccnc(N)n4)cc3)c3ccccc23)c1
116
CNCC[C@H](Oc1cccc2ccccc12)c1cccs1
119
Cc1cc2c(C(N)=O)cccc2n1-c1nc2c(c(NCc3ccccc3)n1)COCC2
96.2
CC(=O)Oc1ccccc1C(=O)Nc1ncc([N+](=O)[O-])s1
102
O=C(c1ccccc1)c1ccc2n1CCC2C(=O)O (stereo not given)
117
CN1\C=N/C2=CC=C(NC3=CC(=CC=C3C)NC(=O)C4=CC(=CC=C4)C(C)(C)C#N)C=C2C1=O
98.7
CC#CCn1c(N2CCC[C@@H](N)C2)nc2c1c(=O)n(Cc1nc(C)c3ccccc3n1)c(=O)n2C
102

// query cell viability value for entry Oc1nc(-c2ccc(C(F)(F)F)cc2)nc2c1CSCC2
102

// query cell viability value for entry OCC(O)C(O)C(O)CO (stereo not given)
96

// query cell viability value for entry CC1=CC(=CC(=C1C\C2=N\CCN2)C)C(C)(C)C
105

// query cell viability value for entry CNc1nc(Nc2cnn([C@H]3CCN(C4COC4)C[C@@H]3F)c2Cl)ncc1C(F)(F)F
106

// query cell viability value for entry COC1=CC=C(C(=C1)OC(C)C)C/2=N/[C@@H]([C@@H](N2C(=O)N3CCNC(=O)C3)C4=CC=C(Cl)C=C4)C5=CC=C(Cl)C=C5
125

// query cell viability value for entry Nc1ncnc2c1ncn2[C@@H]1O[C@H](CO)C[C@H]1O
104
